Data origin, for the record: the nanobody polyreactivity screen of Harvey et al. (2022)

Assay: yeast display, Sf9 membrane polyspecificity reagent, FACS + sequencing; frameworks hold sequencing errors
quantity-name: polyreactivity (PSR sort gate)

chain-sequence	result
QVQLVESGGGLVQAGGSLRLSCAASGFIFKKYVMGWYRQAPGKERELVAGSSRSGGSTYYADSVKGRFTISRDNAKNTVYVQMNSLKPEDTAVYYCAAYIYQSPTRGGGYWGQGTQVSVSS	high polyreactivity
QVQLVESGGGLVQAGGSLRLSCAASGRTFNINALGWYRQAPGKERELVAAITWTGGGNTYYADSVKGRFTISRDNAKNTVYLQMNSLKPEDTAVYYCNADGRNYFYEGFWEGNYWGQGTQVTVSS	low polyreactivity
QVQLVESGGGLVQAGGSLRLSCAASGSTFRFNAMGWYRQAPGKEREFVAAISTSGGSTYYADSVKGRFTISRDNAKNTVYLQMNSLKPEDTAVYYCATRRRIRSSFYYDNDYWGQGTQVTVSS	high polyreactivity
QVQLVESGGGLVQAGGSLRLSCAASGSIFRYYAMGWYRQAPGKERELVASINSGGSTYYADSVKGRFTISRDNAKNTVYLLMNSLKPEDTAVYYCAAETSYYYRGYWKSYDYWGQGTQVTVSS	high polyreactivity
QVQLVESCVVLVQAGGSLRLSCAASGSIFGYYAMGWYRQAPGKERELVAAISDGGTITYYADSVKGRFTISRDHAKNTVYLQMNSLKPEVTAVYYCAARSPPRYYEHRFYYWGQGTQVTVSS	high polyreactivity

Recorded polyreactivity (PSR sort gate) of `QVQLVESGGGLVQAGGSLRLSCAASGSIFTIYAMGWYRQAPGKERELVAAITWSGGSTYYADSVKGRFTISRDNAKNTVYLQMNSLKPEDTAVYYCAAKYYGEMYYWGQGTQVTVSS` , please.
low polyreactivity

// polyreactivity (PSR sort gate) lookup, key: `QVQLVESGGGLVQAGGSLRLSCAASGSIFVPYAMGWYRQAPWKERELVAAISRGGDTNYADSVKGRFTISRDKAKNTVYLQMNSLIPEDTAVSYCNRARHQYSRWHGGYYYWGQCTQVTVSS`
low polyreactivity

What does the record list as polyreactivity (PSR sort gate) for `QVQLVESGGGLVQEGGSLRLSCAASGSTFEYNAMGWYRQAPGKERELVADISWRGGGTYYADSVKGRFTISRDNAKNTVYLQMNSLKPEDTAVYYCNTVSRNGFYRTRHDYWGQGTQVTVSS` ?
low polyreactivity

Form field: reported polyreactivity (PSR sort gate) of `QVQLVESGGGLVQAGGSLRLSCAASGFTFSFYAMGWYRQAPGKERELVATISSGGSTTYADSVKGRFTISRDNAKNTVYLQMNSLKPEDTEVYYCAARYGRVRNYRYDYWGQGTQVTVSS`
high polyreactivity

What value of polyreactivity (PSR sort gate) has been reported for the following sequence? `QVQLVESGGGLVQAGGSLRLSCAASGRTFRGYAMGWYRQAPGKERELVATISSRGGSTYYADSVKGRFTISRDNAKNTVYLQMNSLKPEDTAVYYCAARYIGYSSYKYDYWGQGTQVTVSS`
high polyreactivity

Need polyreactivity (PSR sort gate), item `QVQLVESGGGLVQAGGSLRLSCAASGFTFKYYAMGWYRQAPGKERELVAAITSGGSTYADSVKGRFTISRDNAKITVYLQMNSLKPEDTAVYYCAASIDSGKWLGRRYDYWGQGTQVTVSS`
low polyreactivity
